Measured values drawn from patent US9765067B2 for this set.

Each record here notes measured EC50.
Target: soluble guanylate cyclase (human GUCYA3/GUCYB3) overexpressed in CHO cells (Homo sapiens, UniProt Q02108+Q02153)
Sequence (Q02108 whole entry partner): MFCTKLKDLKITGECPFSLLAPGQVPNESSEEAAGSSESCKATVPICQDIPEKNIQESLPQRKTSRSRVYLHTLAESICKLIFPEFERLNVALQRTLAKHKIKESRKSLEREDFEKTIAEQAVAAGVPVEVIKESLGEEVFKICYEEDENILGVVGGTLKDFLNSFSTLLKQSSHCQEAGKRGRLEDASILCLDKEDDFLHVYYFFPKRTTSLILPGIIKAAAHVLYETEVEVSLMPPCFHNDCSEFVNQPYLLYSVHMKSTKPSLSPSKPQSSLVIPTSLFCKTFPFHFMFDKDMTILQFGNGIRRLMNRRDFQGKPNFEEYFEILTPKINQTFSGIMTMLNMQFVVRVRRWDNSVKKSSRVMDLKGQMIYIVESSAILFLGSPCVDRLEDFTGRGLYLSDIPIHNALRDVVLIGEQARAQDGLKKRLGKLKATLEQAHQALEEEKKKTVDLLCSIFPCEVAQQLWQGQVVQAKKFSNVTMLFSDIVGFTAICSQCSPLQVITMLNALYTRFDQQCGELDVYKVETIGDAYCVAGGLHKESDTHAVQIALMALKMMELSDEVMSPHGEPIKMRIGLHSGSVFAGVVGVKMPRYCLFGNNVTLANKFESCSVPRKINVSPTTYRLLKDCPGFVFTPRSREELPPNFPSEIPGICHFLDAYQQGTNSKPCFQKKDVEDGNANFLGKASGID
Sequence (Q02153 whole entry): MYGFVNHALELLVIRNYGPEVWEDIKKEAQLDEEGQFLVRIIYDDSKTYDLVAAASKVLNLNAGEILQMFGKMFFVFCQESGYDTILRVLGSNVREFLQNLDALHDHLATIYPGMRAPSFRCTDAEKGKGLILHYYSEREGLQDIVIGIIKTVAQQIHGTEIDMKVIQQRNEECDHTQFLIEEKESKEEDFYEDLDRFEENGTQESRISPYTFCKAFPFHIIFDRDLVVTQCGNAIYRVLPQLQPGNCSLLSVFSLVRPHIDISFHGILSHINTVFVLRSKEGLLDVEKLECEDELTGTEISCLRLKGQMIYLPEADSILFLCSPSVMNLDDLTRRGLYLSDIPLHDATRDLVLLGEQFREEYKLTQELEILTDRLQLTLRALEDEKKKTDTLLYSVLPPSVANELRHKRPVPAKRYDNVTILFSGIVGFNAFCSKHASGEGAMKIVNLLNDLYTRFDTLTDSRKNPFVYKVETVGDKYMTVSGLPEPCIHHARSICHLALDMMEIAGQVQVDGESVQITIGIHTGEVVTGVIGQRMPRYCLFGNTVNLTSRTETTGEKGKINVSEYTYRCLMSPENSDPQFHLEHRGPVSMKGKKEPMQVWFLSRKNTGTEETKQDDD
Assay: CHO cellular assay (cGMP production, HTRF)
Conditions: CHO K1 clone 8E10 overexpressing human sGC, Cisbio HTRF, 1 h room temperature, 1 mM IBMX, 20 uM ODQ, minimum quantification limit 0.5 nM
State the answer as a number, implicitly in nM.

A selection of reference data follows.
CCc1cc(OCc2cc(C)sc2-c2cccc(-n3ncc(C(=O)O)c3C(F)(F)F)n2)ccc1C1CCN(C(=O)C(O)CO)CC1 (racemic) ... 130
Cc1c(OCc2ccsc2-c2cccc(-n3ncc(C(=O)O)c3C(F)(F)F)n2)ccc2c1CCN(Cc1ccccn1)C2 ... 37
COC(=O)N1CCC(c2ccc(OCc3cc(C)sc3-c3cccc(-n4ncc(C(=O)O)c4C(F)(F)F)n3)c(C)c2)CC1 ... 1.4
CCc1csc(-c2cccc(-n3ncc(C(=O)O)c3C(F)(F)F)n2)c1COc1ccc(C2CCN(C(=O)C3CC3)CC2)cc1C ... 5.9

Task item: Field request: EC50 | item: `Cc1cc(COc2ccc(C3CC(C)(C)N(C(=O)C4CC4)C(C)(C)C3)cc2C)c(-c2cccc(-n3ncc(C(=O)O)c3C(F)(F)F)n2)s1`
Reply: 1
